All values here come from PubChem BioAssay AID248.

- Tested on: L1210 leukemia ip in BDF1 mice, survival T/C
- Assay Name: NCI In Vivo Anticancer Drug Screen. Data for tumor model L1210 Leukemia (intraperitoneal) in B6D2F1 (BDF1) mice
- Experimental Parameters: endpoint: mean survival time; dose: 75.0 mg/kg/injection; schedule: Q01DX001 (ip); vehicle: saline; higher = longer survival
Inconclusive results and toxic doses are left out.
Attribute Measured: T/C

Value of T/C reported for the compound `COc1cc(CNC2CCCCC2)ccc1O` is 97 % of control

Value of T/C reported for the compound `C#CCCCCCC#[C][Hg][C]#CCCCCCC#C.C#CCCCCCC#[C][Hg][C]#CCCCCCC#C` is 90 % of control

Value of T/C reported for the compound `CSC(=N)N(C)Cc1ccccc1` is 102 % of control

Value of T/C reported for the compound `C[N+]1(CCl)CCOCC1` is 98 % of control

Value of T/C reported for the compound `CN(C)CCc1ccc(Nc2ccnc3cc(Cl)ccc23)cc1` is 101 % of control

Value of T/C reported for the compound `C[n+]1ccccc1/C=C/c1ccc2cccc(O)c2n1` is 102 % of control

Value of T/C reported for the compound `O=C(Cl)c1cc(Cl)nc2c(Cl)cc(Cl)cc12` is 86 % of control

Value of T/C reported for the compound C1=CC2CC1C1CC21 (stereo unspecified) is 100 % of control

Value of T/C reported for the compound CCC1CCC(N)CC1 (stereo unspecified) is 100 % of control

Value of T/C reported for the compound `Cc1cccc(C)c1N(N=O)C(=O)c1ccccc1` is 98 % of control

Value of T/C reported for the compound `CCN(CC)c1ccc(/C=N/NC(=S)NC23CC4CC(CC(C4)C2)C3)cc1` is 100 % of control
